The entries below come with measured inhibition in vivo at 50 mg/kg values attached.
Tested on: Plasmodium berghei
ASSAY NOTES: Antimalarial activity against Plasmodium berghei NK65 infected in BALB/c mouse assessed as inhibition of parasitemia at 50 mg/kg, po qd for 4 days measured on 7th day after parasite inoculation by Giemsa staining based microscopy relative to control
Format: functional
REPORTED CONDITIONS: 96 h
Answer shape: numeric part, then the unit.

Below, each entry is followed by its recorded inhibition in vivo at 50 mg/kg result.
molecule="CC(C)=C[C@H](O)C[C@@H](C)[C@H]1CC[C@@]2(C)[C@@H]3[C@@H](O[C@@H]4O[C@H](CO)[C@@H](O)[C@@H](O)[C@H]4O)C=C4[C@@H](CC[C@H](O)C4(C)C)[C@]3(C)CC[C@]12C [BALSAMINOSIDE B]" readout_name="inhibition in vivo at 50 mg/kg" endpoint_result=8.6%
molecule=CO[C@H]1C=C2[C@@H](CC[C@H](O)C2(C)C)[C@]2(C)CC[C@]3(C)[C@@H]([C@H](C)C[C@@H](O)C=C(C)C)CC[C@@]3(C)[C@H]12 readout_name="inhibition in vivo at 50 mg/kg" endpoint_result=3.4%
molecule="CCC(=O)O[C@H]1CC[C@@H]2C(=C[C@H](OC)[C@@H]3[C@@]2(C)CC[C@]2(C)[C@@H]([C@H](C)C[C@H](C=C(C)C)OC(=O)CC)CC[C@@]32C)C1(C)C [KARAVOATE D]" readout_name="inhibition in vivo at 50 mg/kg" endpoint_result=11.5%

Task: // lookup inhibition in vivo at 50 mg/kg for CO[C@H]1C=C2[C@@H](CC[C@H](OC(C)=O)C2(C)C)[C@]2(C)CC[C@]3(C)[C@@H]([C@H](C)C[C@H](C=C(C)C)OC(C)=O)CC[C@@]3(C)[C@H]12 [KARAVOATE B]
Result: 25.6%
